- measured_on: FAAH (Mus musculus (Mouse))
- Sequence (O08914 whole entry): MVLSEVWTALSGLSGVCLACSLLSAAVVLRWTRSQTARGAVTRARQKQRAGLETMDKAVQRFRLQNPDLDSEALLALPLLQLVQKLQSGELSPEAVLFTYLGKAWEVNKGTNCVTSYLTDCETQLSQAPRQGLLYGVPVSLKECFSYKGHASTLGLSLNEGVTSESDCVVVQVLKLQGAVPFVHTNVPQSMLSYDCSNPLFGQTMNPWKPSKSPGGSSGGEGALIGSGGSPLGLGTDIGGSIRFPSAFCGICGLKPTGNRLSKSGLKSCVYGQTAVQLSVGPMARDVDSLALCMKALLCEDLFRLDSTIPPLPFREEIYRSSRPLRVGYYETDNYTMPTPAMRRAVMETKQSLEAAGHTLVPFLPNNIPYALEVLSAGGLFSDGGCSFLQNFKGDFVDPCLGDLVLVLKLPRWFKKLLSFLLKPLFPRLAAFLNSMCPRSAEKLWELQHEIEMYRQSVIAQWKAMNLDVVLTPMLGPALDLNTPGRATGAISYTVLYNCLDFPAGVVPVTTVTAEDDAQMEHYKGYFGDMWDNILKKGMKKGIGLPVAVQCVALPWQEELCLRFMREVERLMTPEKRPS
- run_description: Mouse brain proteomes from inhibitor treated mice (oral gavage, sacrifice 4 h after administration, ABPP analysis), FAAH
- Format: in vivo
- experimental_conditions: 5 mg/kg oral gavage
measure_name: FAAH % Inh 5 mg/kg (mouse)

{"molecule": "O=C(OC(C(F)(F)F)C(F)(F)F)N1CCC2(CCCN2Cc2cc(N3CCOCC3)cc(C(F)(F)F)c2)CC1", "endpoint_result": "# (# is < 25%)"}
{"molecule": "O=C(O)C1CCN(Cc2cc(C(F)(F)F)ccc2CN2CCCC23CCN(C(=O)OC(C(F)(F)F)C(F)(F)F)CC3)C1 (stereo not shown)", "endpoint_result": "# (# is < 25%)"}
{"molecule": "O=C(OC(C(F)(F)F)C(F)(F)F)N1CCC2(CCCN2Cc2ccc(C(F)(F)F)c(N3CCCC3)c2)CC1", "endpoint_result": "# (# is < 25%)"}
{"molecule": "CS(=O)(=O)NC1CCN(c2cc(Cl)ccc2CN2CCCC23CCN(C(=O)OC(C(F)(F)F)C(F)(F)F)CC3)CC1", "endpoint_result": "# (# is < 25%)"}

* * *

- measured_on: ABHD6 (Mus musculus (Mouse), UniProt Q8R2Y0)
- Sequence (Q8R2Y0 whole entry): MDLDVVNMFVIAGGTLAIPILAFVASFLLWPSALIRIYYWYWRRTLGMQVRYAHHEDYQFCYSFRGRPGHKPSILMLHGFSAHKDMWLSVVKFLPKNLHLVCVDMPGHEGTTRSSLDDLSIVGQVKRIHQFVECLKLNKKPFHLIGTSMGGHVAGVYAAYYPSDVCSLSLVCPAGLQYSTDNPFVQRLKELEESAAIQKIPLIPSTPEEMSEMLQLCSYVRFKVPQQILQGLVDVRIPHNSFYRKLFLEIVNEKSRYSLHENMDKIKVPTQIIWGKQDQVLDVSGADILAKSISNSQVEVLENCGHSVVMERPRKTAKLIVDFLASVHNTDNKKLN
- run_description: Mouse brain proteomes from inhibitor treated mice (oral gavage, sacrifice 4 h after administration, ABPP analysis), ABHD6
- Assay type: in vivo
- experimental_conditions: 5 mg/kg oral gavage
- Protocol: Preparation of Mouse Brain Proteomes from Inhibitor Treated Mice. Inhibitors were administered to wild-type C57Bl/6J by oral gavage in a vehicle, e.g. PEG400/Ethanol/PBS (7/2/1). Each animal was sacrificed 4 h following administration and brain proteomes were prepared and analyzed according to previously established methods (See Niphakis, M. J., et al. (2011) ACS Chem. Neurosci. and Long, J. Z., et al. Nat. Chem. Biol. 5:37-44). Data from this assay is shown in Table 2 (% inhibition at 5 mg/kg).

{"substance_smiles": "O=C(OC(C(F)(F)F)C(F)(F)F)N1CCC2(CCN(Cc3cccc(Cl)c3N3CCC(F)(F)CC3)C2)CC1", "ABHD6 % Inh 5 mg/kg (mouse)": "# (# is < 25%)"}
{"substance_smiles": "CC1(C)CC2(CCN(C(=O)OC(C(F)(F)F)C(F)(F)F)CC2)CN1Cc1cccc(Cl)c1N1CCOCC1", "ABHD6 % Inh 5 mg/kg (mouse)": "# (# is < 25%)"}
{"substance_smiles": "Cc1c(CN2CCCC23CCN(C(=O)OC(C(F)(F)F)C(F)(F)F)CC3)cccc1N1CC2CCC(C1)O2", "ABHD6 % Inh 5 mg/kg (mouse)": "# (# is < 25%)"}
{"substance_smiles": "O=C(OC(C(F)(F)F)C(F)(F)F)N1CCC2(CCCN2Cc2ccc(Cl)c(OCCF)c2)CC1", "ABHD6 % Inh 5 mg/kg (mouse)": "# (# is < 25%)"}

* * *

- measured_on: MAGL (Mus musculus (Mouse))
- Sequence (O35678 whole entry): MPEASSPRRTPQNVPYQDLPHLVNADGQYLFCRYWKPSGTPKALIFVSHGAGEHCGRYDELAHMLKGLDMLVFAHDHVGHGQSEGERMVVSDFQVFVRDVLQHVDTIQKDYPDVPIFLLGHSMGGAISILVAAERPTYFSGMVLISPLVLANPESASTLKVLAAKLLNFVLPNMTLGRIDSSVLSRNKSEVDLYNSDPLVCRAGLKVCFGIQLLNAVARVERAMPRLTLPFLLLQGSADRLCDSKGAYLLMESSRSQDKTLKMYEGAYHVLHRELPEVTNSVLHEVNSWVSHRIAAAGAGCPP
- run_description: Mouse brain proteomes from inhibitor treated mice (oral gavage, sacrifice 4 h after administration, ABPP analysis)
- Format: in vivo
- experimental_conditions: 5 mg/kg oral gavage
measure_name: MAGL % Inh 5 mg/kg (mouse)

Before answering, review these 6 worked examples.
{"substance_smiles": "O=C(O)C1CCN(c2cc(S(F)(F)(F)(F)F)ccc2CN2CCCC23CCN(C(=O)OC(C(F)(F)F)C(F)(F)F)CC3)CC1", "measured_on": "MAGL (Mus musculus (Mouse))", "MAGL % Inh 5 mg/kg (mouse)": "### (### is ≥ 75%)"}
{"substance_smiles": "O=C(O)[C@H]1CCCN(c2cc(C(F)(F)F)ccc2CN2CCCC23CCN(C(=O)OC(C(F)(F)F)C(F)(F)F)CC3)C1", "measured_on": "MAGL (Mus musculus (Mouse))", "MAGL % Inh 5 mg/kg (mouse)": "### (### is ≥ 75%)"}
{"substance_smiles": "O=C(O)[C@@H]1CCCN(c2cc(C(F)(F)F)ccc2CN2CCCC23CCN(C(=O)OC(C(F)(F)F)C(F)(F)F)CC3)C1", "measured_on": "MAGL (Mus musculus (Mouse))", "MAGL % Inh 5 mg/kg (mouse)": "### (### is ≥ 75%)"}
{"substance_smiles": "O=C(OC(C(F)(F)F)C(F)(F)F)N1CCC2(CCCN2Cc2ccc(Cl)cc2N2CCC(F)CC2)CC1", "measured_on": "MAGL (Mus musculus (Mouse))", "MAGL % Inh 5 mg/kg (mouse)": "### (### is ≥ 75%)"}
{"substance_smiles": "O=C(OC(C(F)(F)F)C(F)(F)F)N1CCC2(CCCN2Cc2cc(Cl)cc(N3CCCC3)c2)CC1", "measured_on": "MAGL (Mus musculus (Mouse))", "MAGL % Inh 5 mg/kg (mouse)": "### (### is ≥ 75%)"}
{"substance_smiles": "O=C(OC(C(F)(F)F)C(F)(F)F)N1CCC2(CCCN2Cc2ccc(C(F)(F)F)cc2N2CCC(F)CC2)CC1", "measured_on": "MAGL (Mus musculus (Mouse))", "MAGL % Inh 5 mg/kg (mouse)": "### (### is ≥ 75%)"}

Answer with the recorded MAGL % Inh 5 mg/kg (mouse) of O=C(O)C1CCN(c2cc(Cl)cc(CN3CCCC34CCN(C(=O)OC(C(F)(F)F)C(F)(F)F)CC4)c2)CC1 only.
### (### is ≥ 75%)

Annotate the compound CCc1cc(CN2CCC3(CCN(C(=O)OC(C(F)(F)F)C(F)(F)F)CC3)C2)ccc1F with its measured MAGL % Inh 5 mg/kg (mouse).
### (### is ≥ 75%)

Could you please provide reported MAGL % Inh 5 mg/kg (mouse) for O=C(OC(C(F)(F)F)C(F)(F)F)N1CCC2(CCCN2Cc2ccc(OCCF)cc2)CC1 ? Thanks!
### (### is ≥ 75%)

Return value of MAGL % Inh 5 mg/kg (mouse) for input O=C(OC(C(F)(F)F)C(F)(F)F)N1CCC2(CCCN2Cc2ccc(C(F)(F)F)c(N3CCCC3)c2)CC1 , no commentary.
### (### is ≥ 75%)

Input O=C(O)C1CCN(C(=O)c2cc(C(F)(F)F)ccc2CN2CCCC23CCN(C(=O)OC(C(F)(F)F)C(F)(F)F)CC3)CC1 , output reported MAGL % Inh 5 mg/kg (mouse).
# (# is < 25%)

Give the value of MAGL % Inh 5 mg/kg (mouse) reported for the following: CN(C)C(=O)C1CCN(c2cc(C(F)(F)F)ccc2CN2CCCC23CCN(C(=O)OC(C(F)(F)F)C(F)(F)F)CC3)CC1
# (# is < 25%)

* * *

- measured_on: ABHD6 (Mus musculus (Mouse))
- run_description: Mouse brain proteomes from inhibitor treated mice (oral gavage, sacrifice 4 h after administration, ABPP analysis), ABHD6
- Assay type: in vivo
- experimental_conditions: 5 mg/kg oral gavage
measure_name: ABHD6 % Inh 5 mg/kg (mouse)

Sample records with ABHD6 % Inh 5 mg/kg (mouse):
{"molecule": "O=C(OC(C(F)(F)F)C(F)(F)F)N1CCC2(CCCN2Cc2ccc(C(F)(F)F)cc2N2CC3COCC3C2)CC1 (stereo not shown)", "ABHD6 % Inh 5 mg/kg (mouse)": "# (# is < 25%)"}
{"molecule": "CN(C)C(=O)C1CCN(c2cc(C(F)(F)F)ccc2CN2CCCC23CCN(C(=O)OC(C(F)(F)F)C(F)(F)F)CC3)CC1", "ABHD6 % Inh 5 mg/kg (mouse)": "# (# is < 25%)"}
{"molecule": "O=C(OC(C(F)(F)F)C(F)(F)F)N1CCC2(CCCN2Cc2ccc(Cl)cc2N2CC3CCC(C2)O3)CC1", "ABHD6 % Inh 5 mg/kg (mouse)": "# (# is < 25%)"}
{"molecule": "CCc1cc(CN2CCC3(CCN(C(=O)OC(C(F)(F)F)C(F)(F)F)CC3)C2)ccc1F", "ABHD6 % Inh 5 mg/kg (mouse)": "### (### is ≥ 75%)"}
{"molecule": "CC1(C(=O)O)CCCN(c2cc(C(F)(F)F)ccc2CN2CCC3(CCN(C(=O)OC(C(F)(F)F)C(F)(F)F)CC3)C2)C1 (stereo not shown)", "ABHD6 % Inh 5 mg/kg (mouse)": "# (# is < 25%)"}

Identify measured ABHD6 % Inh 5 mg/kg (mouse) associated with O=C(OC(C(F)(F)F)C(F)(F)F)N1CCC2(CCCN2Cc2cc(Oc3cccnc3)cc(C(F)(F)F)c2)CC1
# (# is < 25%)

Determine from records and report ABHD6 % Inh 5 mg/kg (mouse) for O=C(OC(C(F)(F)F)C(F)(F)F)N1CCC2(CCCN2Cc2cc(N3CCC3)cc(C(F)(F)F)c2)CC1
# (# is < 25%)

Name the recorded ABHD6 % Inh 5 mg/kg (mouse) of the molecule listed here: O=C(OC(C(F)(F)F)C(F)(F)F)N1CCC2(CCCN2Cc2ccc(C(F)(F)F)cc2N2CCCCC2)CC1
# (# is < 25%)

Look up and report measured ABHD6 % Inh 5 mg/kg (mouse) for this entry: O=C(OC(C(F)(F)F)C(F)(F)F)N1CCC2(CCCN2Cc2ccc(C(F)(F)F)cc2N2CCCC2)CC1
# (# is < 25%)

Return ABHD6 % Inh 5 mg/kg (mouse) (reported value) for this molecule: O=C(OC(C(F)(F)F)C(F)(F)F)N1CCC2(CCCN2Cc2ccc(N3CCCC3)c(Cl)c2)CC1
# (# is < 25%)

Note ABHD6 % Inh 5 mg/kg (mouse) for the molecule shown: CC(=O)NC1CCN(c2cc(C(F)(F)F)ccc2CN2CCCC23CCN(C(=O)OC(C(F)(F)F)C(F)(F)F)CC3)CC1
# (# is < 25%)

Please give the documented ABHD6 % Inh 5 mg/kg (mouse) of O=C(O)C1CCN(Cc2cc(CN3CCCC34CCN(C(=O)OC(C(F)(F)F)C(F)(F)F)CC4)cc(C(F)(F)F)c2)C1 (stereo not shown)
# (# is < 25%)

Quickly give me recorded ABHD6 % Inh 5 mg/kg (mouse) for CC1(C(=O)O)CN(c2cc(CN3CCCC34CCN(C(=O)OC(C(F)(F)F)C(F)(F)F)CC4)cc(C(F)(F)F)c2)CCO1 (stereo not shown)
# (# is < 25%)

For O=C(OC(C(F)(F)F)C(F)(F)F)N1CCC2(CCCN2Cc2cccc(N3CCCC3)c2Cl)CC1 , write its ABHD6 % Inh 5 mg/kg (mouse).
# (# is < 25%)

Name the recorded ABHD6 % Inh 5 mg/kg (mouse) of the item O=C(OC(C(F)(F)F)C(F)(F)F)N1CCC2(CCCN2Cc2ccc(C(F)(F)F)cc2N2CC3CCC(C2)O3)CC1 in your answer.
# (# is < 25%)

Give ABHD6 % Inh 5 mg/kg (mouse) for the following molecule: O=C(O)C1CCN(c2cc(F)cc(CN3CCCC34CCN(C(=O)OC(C(F)(F)F)C(F)(F)F)CC4)c2)CC1
# (# is < 25%)

Assign ABHD6 % Inh 5 mg/kg (mouse) to the following record: CC(=O)N1CCCc2cccc(CN3CCC4(CCN(C(=O)OC(C(F)(F)F)C(F)(F)F)CC4)C3)c21
### (### is ≥ 75%)

// Input: CS(=O)(=O)C1CCN(c2cc(C(F)(F)F)ccc2CN2CCCC23CCN(C(=O)OC(C(F)(F)F)C(F)(F)F)CC3)CC1 . Output its ABHD6 % Inh 5 mg/kg (mouse) only.
# (# is < 25%)

Assign ABHD6 % Inh 5 mg/kg (mouse) to the following record: O=C(OC(C(F)(F)F)C(F)(F)F)N1CCC2(CCN(Cc3ccc(Cl)cc3N3CCCCC3)C2)CC1
# (# is < 25%)

Tell us which ABHD6 % Inh 5 mg/kg (mouse) value is on record for CS(=O)(=O)N1CCN(c2cc(CN3CCCC34CCN(C(=O)OC(C(F)(F)F)C(F)(F)F)CC4)cc(C(F)(F)F)c2)CC1
# (# is < 25%)

Please list ABHD6 % Inh 5 mg/kg (mouse) recorded for the molecule O=C(OC(C(F)(F)F)C(F)(F)F)N1CCC2(CCN(Cc3ccc(C(F)(F)F)cc3N3CCOCC3)C2)CC1
# (# is < 25%)

Please report ABHD6 % Inh 5 mg/kg (mouse) for the following molecule: O=C(OC(C(F)(F)F)C(F)(F)F)N1CCC2(CCCN2Cc2cccc(N3CCOCC3)c2Cl)CC1
# (# is < 25%)

Check the records and state ABHD6 % Inh 5 mg/kg (mouse) for O=C(OC(C(F)(F)F)C(F)(F)F)N1CCC2(CCCN2Cc2ccc(Cl)cc2N2CCCCC2)CC1
# (# is < 25%)

Tell us which ABHD6 % Inh 5 mg/kg (mouse) value is on record for CCOc1ccc(CN2CCCC23CCN(C(=O)OC(C(F)(F)F)C(F)(F)F)CC3)cc1
# (# is < 25%)

Dear colleague, please send me the reported ABHD6 % Inh 5 mg/kg (mouse) for CC1(C(=O)O)CN(c2cc(C(F)(F)F)ccc2CN2CCC3(CCN(C(=O)OC(C(F)(F)F)C(F)(F)F)CC3)C2)CCO1 (stereo not shown) when you can.
# (# is < 25%)

Entry Cc1cc(CN2CCCC23CCN(C(=O)OC(C(F)(F)F)C(F)(F)F)CC3)ccc1Cl needs its ABHD6 % Inh 5 mg/kg (mouse) filled in; supply it.
# (# is < 25%)

Dear colleague, please send me the reported ABHD6 % Inh 5 mg/kg (mouse) for O=C(O)C1CCN(c2cc(Cl)ccc2CN2CCCC23CCN(C(=O)OC(C(F)(F)F)C(F)(F)F)CC3)CC1 when you can.
# (# is < 25%)

Note down ABHD6 % Inh 5 mg/kg (mouse) recorded for CS(=O)(=O)NC1CCN(c2cc(Cl)ccc2CN2CCCC23CCN(C(=O)OC(C(F)(F)F)C(F)(F)F)CC3)CC1
# (# is < 25%)
